system: RPMI-8226; test: NCI tumour cell line growth inhibition, 48 h
Activity calls are given as the source filed them. No stated cut-off is given here; in the data, active = GI50 up to about 1.1 µM and inactive = higher.
Outcome (select one): active, inactive

molecule	label_value
N#CC1C(=O)Nc2sc(C(=O)c3ccc(Br)cc3)c(N)c2C12CCCCC2 (stereo not given)	inactive
CN(CCC(=O)N1CC(CCl)c2ccc([N+](=O)[O-])cc21)CCC(=O)N1CC(CCl)c2ccc([N+](=O)[O-])cc21 (stereo not given)	inactive
COc1cc(O)c2c(c1)O[C@@H]1OCC[C@H]21	inactive
C[N+]12C=CC=C1C(N1CCCC1)c1scc(-c3ccccc3)c12 (stereo not given)	inactive
CC(=O)/C(C)=N/NC(=O)c1ccccc1O	inactive

Kindly provide the recorded test outcome for the following molecule: O=C(O)CCSC(=O)Nc1ccccc1
inactive

Kindly provide the recorded test outcome for the following molecule: Nc1ncnc2c1ncn2C1(CO)OC(CO)C(O)C1O (stereo not given)
inactive

---

// reported GI50 for each item listed
tested on: 786-0; assay: NCI tumour cell line growth inhibition, 48 h
Active and inactive are the calls of the source. Rule as the data show it: active = GI50 up to about 1.1 µM and inactive = higher.

// below: answered compounds
compound	GI50
O=[N+]([O-])c1cccc2nc3ccccc3c(NCCC[N+]3([O-])CCCCC3)c12	0.438 µM (active)
COc1ccc([I+]c2ccc(OC)cc2)cc1	50.7 µM (inactive)

Okay, next one:
Query O=C(c1ccccc1)c1ccc2nc3n(c2c1)C(c1c(F)cccc1F)SC3 (stereo not drawn) on 786-0; GI50 returned: 4.2 µM (inactive)

---

tested on: SW-620; assay: NCI tumour cell line growth inhibition, 48 h
The source made the active and inactive calls. Rule as the data show it: active = GI50 up to about 1.1 µM and inactive = higher.
measurement_label: GI50

compound	measurement_label	measured_value
Cc1ccc(Cl)c(NC(=O)C(=O)C(C(=O)c2ccncc2)C2OC(=O)c3ccccc32)c1 (stereo not given)	GI50	> 100 µM (inactive)
CC(=O)OC1COC(n2nc(/C=C/c3ccc(Cl)cc3)c(=O)n(/N=C/c3ccccc3)c2=S)C(OC(C)=O)C1OC(C)=O (stereo not given)	GI50	> 100 µM (inactive)
COc1cc2c(cc1O)[C@H](Cc1ccc(Oc3cc(C[C@H]4c5cc(OC)c(OC)cc5CCN4C)ccc3OC)cc1)NCC2	GI50	11.6 µM (inactive)
c1cnc(N2CCN(Cc3c[nH]c4ccccc34)CC2)nc1	GI50	> 100 µM (inactive)
Nc1n[n+]([O-])c2cc([N+](=O)[O-])ccc2[n+]1[O-]	GI50	2.22 µM (inactive)
c1cc(-c2ccc(-c3ccsc3)s2)cs1	GI50	44.3 µM (inactive)

Query N#CC1(C#N)[C@@H]2CCC=C(Sc3ccccc3)[C@@H]21 on SW-620; GI50 returned: 11.9 µM (inactive)

Query COc1cccc2c(Nc3ccc(S(=O)(=O)N=C(N)N)cc3)c3ccc([N+](=O)[O-])cc3nc12 on SW-620; GI50 returned: 16.7 µM (inactive)

Query CN(CC(=O)O)S(=O)(=O)c1ccc(F)cc1 on SW-620; GI50 returned: > 100 µM (inactive)

Query NC(CCSCC(F)F)C(=O)O (stereo not given) on SW-620; GI50 returned: > 100 µM (inactive)

---

tested on: HT-29; experiment: NCI tumour cell line growth inhibition, 48 h
Active and inactive are the calls of the source. Cut-off read from the data, not from the text of the source: active = GI50 up to about 1.1 µM and inactive = higher.
// reported GI50 for each item listed

molecule	GI50
Cc1ccc(C(=O)c2[nH]c(Nc3ccc(Cl)cc3)c(C(=S)Nc3ccccc3)c2N)cc1	4.43 µM (inactive)
c1cnc(N2CCN(Cc3c[nH]c4ccccc34)CC2)nc1	56.6 µM (inactive)
C[C@H]1S[C@H](c2c(F)cccc2F)n2c1nc1ccccc12	47.3 µM (inactive)

Kindly note the recorded GI50 for CC1(C)CCOC(=O)C(Cl)CC1Cl (stereo unspecified) , which is > 100 µM (inactive)

Data provenance: ChEMBL document CHEMBL1201862
